Every entry's value here was drawn from the RNAGym collection of RNA variant scans (doi:10.1073/pnas.2313332121).

B1: TPR 5TU (parent)
chain: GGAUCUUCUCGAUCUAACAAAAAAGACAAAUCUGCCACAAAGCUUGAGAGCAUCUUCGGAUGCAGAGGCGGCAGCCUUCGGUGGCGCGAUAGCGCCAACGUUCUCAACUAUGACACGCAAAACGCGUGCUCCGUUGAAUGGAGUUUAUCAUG

Variants of: B1
Assay notes: polymerase ribozyme fitness, log enrichment relative to wild type (log ratio); higher = more active; in vitro selection for triplet polymerase activity
This sample holds only a part of the variants without activity.

Mutation spec | polymerase ribozyme fitness (log ratio)
C5G A19U A37U U45A U61A C87U | ≤ -4.2
C38G A41U C79U G92C C123A | ≤ -4.2
G11U G42U G68A G86U C95G A137C | ≤ -4.2
G11A A26U G48A U109C A147G | ≤ -4.2
A12G C72U G88U A120U G141U | ≤ -4.2
C14G A26G U56G A73U G143A | ≤ -4.2
A23C A39U G46U U90A C96A C99U C114G G141C | ≤ -4.2
C10G A26C C75A G84A | ≤ -4.2
C69G A89U | -1.45
A41G G42A G92C U111C A113U C125G | ≤ -4.2
U15A G50A U109G A110G | ≤ -4.2
C35U A52U C95G A106U A107G C118G | ≤ -4.2
C76U G83U G84U C123U | -2.49
U53A G86A A91C G128C | ≤ -4.2
A3U A16U A17G A23C C93U A106G A122G U139G | ≤ -4.2
A39U U102C | -4.01
C54U G59A G70C | -2.48
C10A U13G G25C G34U U61A C63U G68C U77C C79A G86A | ≤ -4.2
C5A G25C A41C C85U A89C A115G C132G U146C U148G | ≤ -4.2
A20G A26U U31G A40G C125G U151C G152A | ≤ -4.2
C51G U55A | -2.88
U56G G71C C123G | -3.58
U53A C132U | -1.73
U53A C95U A138C | ≤ -4.2
C38A U44A A47U G86U C87G G100A A107G C118U | ≤ -4.2
C51A U61A C95U | -2.06
G80A C99G | -1.02
U7C C18G G25C A28U C38G U55A G70C G94C | ≤ -4.2
C18U G81A C87U A97U | -1.14
A30C G46U C95G U102G | ≤ -4.2
U55A G126A | -1.02
U4G C35A C79A G94A U148G | ≤ -4.2
G11U G84A U90C A119G C125A | ≤ -4.2
A12G A29C C35G C95A C118A G133C | ≤ -4.2
U33C C36U C54A C72U G84U C85A U148G | ≤ -4.2
U53C G58C C93U C96G G140A | -4.1
C18G U55A A98G A106G G112U A120U | -3.87
A3U C14G A28C A91U A97C A122C | ≤ -4.2
G68C A89G G94A A113U | ≤ -4.2
C5A A21C G74A U82G G92U | ≤ -4.2
C85U G92U U139G | -1.29
A21U C96U C108U C132A | ≤ -4.2
U56A G141U | 0.137
A3G C51A | -1.26
A12G G88C | -3.71
C96U G128U U146C | -3.35
